- measurementTarget: Serine/threonine-protein kinase pim-1 (Homo sapiens) (UniProt P11309)
- Sequence (P11309 whole entry, looked up): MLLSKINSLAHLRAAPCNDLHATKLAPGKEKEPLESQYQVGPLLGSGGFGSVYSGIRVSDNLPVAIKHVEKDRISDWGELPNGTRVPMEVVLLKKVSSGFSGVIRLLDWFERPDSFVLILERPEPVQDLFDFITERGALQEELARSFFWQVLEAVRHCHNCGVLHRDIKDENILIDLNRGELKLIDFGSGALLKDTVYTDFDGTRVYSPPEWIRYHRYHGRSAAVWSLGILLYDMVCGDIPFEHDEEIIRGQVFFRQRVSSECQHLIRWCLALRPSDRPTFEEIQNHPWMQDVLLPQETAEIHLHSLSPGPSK
- assayOverview: Inhibition of PIM1 (unknown origin) assessed as residual enzyme activity at 10 uM
measuredProperty: Activity (%)
Answer format: numeric, % implied, no suffix.

| compoundStructureString | Activity / % |
| --- | --- |
| COc1cccc(OC)c1C(=O)Nc1c[nH]nc1C(=O)N[C@H]1CC[C@H](OC)CC1 | 100 |
| CO[C@H]1CC[C@H](NC(=O)c2n[nH]cc2NC(=O)c2ccc(-c3ccccc3)o2)CC1 | 13 |
| COc1cccc(OC)c1C(=O)Nc1c[nH]nc1C(=O)NCc1ccccc1 | 92 |

Now consider a different molecule.
Q. Lab request: please report Activity under test system Serine/threonine-protein kinase pim-1 (Homo sapiens) (UniProt P11309) for CO[C@H]1CC[C@H](NC(=O)c2n[nH]cc2NC(=O)c2ccccc2)CC1
A. 46

----------
- measurementTarget: Glycogen synthase kinase-3 beta (Homo sapiens) (UniProt P49841)
- Sequence (P49841 whole entry, looked up): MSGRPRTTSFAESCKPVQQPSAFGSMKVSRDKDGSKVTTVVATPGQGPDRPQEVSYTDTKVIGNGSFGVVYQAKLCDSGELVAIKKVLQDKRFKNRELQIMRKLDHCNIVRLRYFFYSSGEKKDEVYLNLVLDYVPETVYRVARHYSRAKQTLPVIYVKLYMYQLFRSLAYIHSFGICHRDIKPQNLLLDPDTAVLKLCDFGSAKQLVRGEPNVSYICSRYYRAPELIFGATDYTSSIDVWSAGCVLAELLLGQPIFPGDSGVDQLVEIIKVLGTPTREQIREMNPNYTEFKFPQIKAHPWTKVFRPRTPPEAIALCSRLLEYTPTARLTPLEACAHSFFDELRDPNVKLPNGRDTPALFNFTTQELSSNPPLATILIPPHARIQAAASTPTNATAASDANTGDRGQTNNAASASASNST
- assayOverview: Inhibition of GSK3b (unknown origin) assessed as residual enzyme activity at 10 uM
A collection of molecules and their measured Activity
Answer format: numeric, % implied, no suffix.

Consider the following illustrative entries.
| compoundStructureString | unitLabel | Activity |
| --- | --- | --- |
| CO[C@H]1CC[C@H](NC(=O)c2n[nH]cc2NC(=O)c2ccc(-c3ccccc3)o2)CC1 | % | 0 |
| COc1cccc(OC)c1C(=O)Nc1c[nH]nc1C(=O)NCc1ccccc1 | % | 10 |
| COc1cccc(OC)c1C(=O)Nc1c[nH]nc1C(=O)N[C@H]1CC[C@H](OC)CC1 | % | 0 |

Now consider a different molecule.
Q. Requested read-out: Activity. Entry: CO[C@H]1CC[C@H](NC(=O)c2n[nH]cc2NC(=O)c2ccccc2)CC1
A. 33

----------
- Tested on: MRC5
- assayOverview: Cytotoxicity against human MRC5 cells assessed as growth inhibition after 72 hrs
- Format: cell-based
- testConditions: MRC5, 72 h
For each record, check the reported EC50: if it is below 30 µM write YES, else write NO.

Below, 6 compounds whose answers are already recorded.
| compound | measurementTarget | answerLabel |
| --- | --- | --- |
| COCCNC(=O)c1n[nH]cc1NC(=O)c1c(OC)cccc1OC | MRC5 | NO |
| CO[C@H]1CC[C@H](NC(=O)c2n[nH]cc2NC(=O)Cc2ccccc2F)CC1 | MRC5 | NO |
| CO[C@H]1CC[C@H](NC(=O)c2n[nH]cc2NC(=O)c2cnc3ccccn23)CC1 | MRC5 | YES |
| CO[C@H]1CC[C@H](NC(=O)c2n[nH]cc2NC(=O)c2ccccc2)CC1 | MRC5 | YES |
| COc1cccc(OC)c1C(=O)Nc1c[nH]nc1C(=O)NCCCN(C)C | MRC5 | NO |
| COc1cccc(OC)c1C(=O)Nc1c[nH]nc1C(=O)NC1CCC(C)CC1 (mixture of isomers) | MRC5 | NO |

Q. Is EC50 strictly under 30 µM for the entry COc1cccc(OC)c1C(=O)Nc1c[nH]nc1C(=O)Nc1ccncc1 ?
A. NO

Q. Another compound: COc1cccc(OC)c1C(=O)Nc1c[nH]nc1C(=O)NCCCOC(C)C
A. NO

Q. Another compound: CO[C@H]1CC[C@H](NC(=O)c2n[nH]cc2NC(=O)c2ccccc2Nc2ccccc2)CC1
A. NO

Q. Another compound: COc1ccccc1CC(=O)Nc1c[nH]nc1C(=O)N[C@H]1CC[C@H](OC)CC1
A. NO

Q. Another compound: COc1cccc(OC)c1C(=O)Nc1c[nH]nc1C(=O)NC1CCCCC1
A. NO

Q. Another compound: CO[C@H]1CC[C@H](NC(=O)c2n[nH]cc2NC(=O)c2ccccc2F)CC1
A. YES

Q. Another compound: COc1cccc(OC)c1C(=O)Nc1c[nH]nc1C(=O)NC1CCC1
A. NO

Q. Another compound: CO[C@H]1CC[C@H](NC(=O)c2n[nH]cc2NC(=O)Cc2c(Cl)cccc2Cl)CC1
A. YES

Q. Another compound: COc1cccc(OC)c1C(=O)Nc1c[nH]nc1C(=O)NC1CCCCCC1
A. NO

----------
- assayOverview: Selectivity ratio, ratio of IC50 for human CDK2/cyclin A to IC50 for Trypanosoma brucei GSK3
Short version: Ratio IC50 at least 10 is satisfied, less is not satisfied.

Below, 5 molecules whose answers are already recorded.
| molecule | answerLabel |
| --- | --- |
| COc1cccc(OC)c1C(=O)Nc1c[nH]nc1C(=O)NCCCOC(C)C | satisfied |
| COc1cccc(OC)c1C(=O)Nc1c[nH]nc1C(=O)NCc1ncccc1C | satisfied |
| CO[C@H]1CC[C@H](NC(=O)c2n[nH]cc2NC(=O)c2cc(Cl)cc(Cl)c2)CC1 | satisfied |
| CO[C@H]1CC[C@H](NC(=O)c2n[nH]cc2NC(=O)C2CCC(F)(F)CC2)CC1 | not satisfied |
| CO[C@H]1CC[C@H](NC(=O)c2n[nH]cc2NC(=O)c2ccc(-c3ccccc3)o2)CC1 | not satisfied |

Q. Given COc1cc(OC)c(C(=O)Nc2c[nH]nc2C(=O)N[C@H]2CC[C@H](OC)CC2)c(OC)c1 , state whether its Ratio IC50 is at least 10.
A. satisfied

Q. Another molecule: COc1cccc(OC)c1C(=O)Nc1c[nH]nc1C(=O)NCc1ccccc1
A. satisfied

Q. Another molecule: COCCNC(=O)c1n[nH]cc1NC(=O)c1c(OC)cccc1OC
A. satisfied

Q. Another molecule: CO[C@H]1CC[C@H](NC(=O)c2n[nH]cc2NC(=O)c2ccc(N3CCCC3)cc2)CC1
A. not satisfied

Q. Another molecule: COc1cccc(OC)c1C(=O)Nc1c[nH]nc1C(=O)NC1CC2CCC1C2 (stereo not given)
A. satisfied

Q. Another molecule: COc1cccc(OC)c1C(=O)Nc1c[nH]nc1C(=O)Nc1ccccn1
A. satisfied

Q. Another molecule: COc1cccc(OC)c1C(=O)Nc1c[nH]nc1C(=O)NCCCN(C)C
A. satisfied

----------
A collection of compounds and their measured Activity
- measurementTarget: Mitogen-activated protein kinase 15 (Homo sapiens)
- assayOverview: Inhibition of ERK8 (unknown origin) assessed as residual enzyme activity at 10 uM
Answer format: numeric, % implied, no suffix.

Q. Lab request: please report Activity under test system Mitogen-activated protein kinase 15 (Homo sapiens) for COc1cccc(OC)c1C(=O)Nc1c[nH]nc1C(=O)N[C@H]1CC[C@H](OC)CC1
A. 27

Q. Another compound: CO[C@H]1CC[C@H](NC(=O)c2n[nH]cc2NC(=O)c2ccc(-c3ccccc3)o2)CC1
A. 7

Q. Another compound: COc1cccc(OC)c1C(=O)Nc1c[nH]nc1C(=O)NCc1ccccc1
A. 47

Q. Another compound: CO[C@H]1CC[C@H](NC(=O)c2n[nH]cc2NC(=O)c2ccccc2)CC1
A. 14

----------
A collection of compounds and their measured Activity
- measurementTarget: Dual specificity tyrosine-phosphorylation-regulated kinase 1A (Homo sapiens)
- assayOverview: Inhibition of DYRK1A (unknown origin) assessed as residual enzyme activity at 10 uM
Answer format: numeric, % implied, no suffix.

Consider the following illustrative entries.
| compoundStructureString | Activity (%) |
| --- | --- |
| CO[C@H]1CC[C@H](NC(=O)c2n[nH]cc2NC(=O)c2ccc(-c3ccccc3)o2)CC1 | 1 |
| CO[C@H]1CC[C@H](NC(=O)c2n[nH]cc2NC(=O)c2ccccc2)CC1 | 6 |
| COc1cccc(OC)c1C(=O)Nc1c[nH]nc1C(=O)NCc1ccccc1 | 79 |

Now consider a different compound.
Q. Requested read-out: Activity. Entry: COc1cccc(OC)c1C(=O)Nc1c[nH]nc1C(=O)N[C@H]1CC[C@H](OC)CC1
A. 84

----------
- measurementTarget: CDK2/Cyclin A2 (Homo sapiens)
- assayOverview: Inhibition of human CDK2/cyclin A using Biotin-C6-PKTPKKAKKL substrate
A collection of compounds and their measured log10 of IC50
Friendly reminder: values = log10 of IC50, unit nM.

Consider the following illustrative entries.
| compoundStructureString | measurementTarget | experimentalValue |
| --- | --- | --- |
| COc1cc(OC)c(C(=O)Nc2c[nH]nc2C(=O)N[C@H]2CC[C@H](OC)CC2)c(OC)c1 | CDK2/Cyclin A2 (Homo sapiens) | 3.49 |
| COc1cccc(OC)c1C(=O)Nc1c[nH]nc1C(=O)N[C@H]1CC[C@H](O)CC1 | CDK2/Cyclin A2 (Homo sapiens) | 3.20 |
| CO[C@H]1CC[C@H](NC(=O)c2n[nH]cc2NC(=O)Cc2ccccc2F)CC1 | CDK2/Cyclin A2 (Homo sapiens) | 2.91 |

Q. Lab request: please report log10 of IC50 under test system CDK2/Cyclin A2 (Homo sapiens) for COc1cccc(OC)c1C(=O)Nc1c[nH]nc1C(=O)NC1CCCCCC1
A. 3.30

Q. Another compound: CO[C@H]1CC[C@H](NC(=O)c2n[nH]cc2NC(=O)c2cnc3ccccn23)CC1
A. 2.18

Q. Another compound: CO[C@H]1CC[C@H](NC(=O)c2n[nH]cc2NC(=O)c2ccc(N3CCCC3)cc2)CC1
A. 2.11

Q. Another compound: CO[C@H]1CC[C@H](NC(=O)c2n[nH]cc2NC(=O)c2ccccc2)CC1
A. 1.58
